For each of the binders below, state its Kd.
Target: T1, mfNPR1-mFc (monkey)
T1 construct: also called dimeric monkey NPR1
T1 chain: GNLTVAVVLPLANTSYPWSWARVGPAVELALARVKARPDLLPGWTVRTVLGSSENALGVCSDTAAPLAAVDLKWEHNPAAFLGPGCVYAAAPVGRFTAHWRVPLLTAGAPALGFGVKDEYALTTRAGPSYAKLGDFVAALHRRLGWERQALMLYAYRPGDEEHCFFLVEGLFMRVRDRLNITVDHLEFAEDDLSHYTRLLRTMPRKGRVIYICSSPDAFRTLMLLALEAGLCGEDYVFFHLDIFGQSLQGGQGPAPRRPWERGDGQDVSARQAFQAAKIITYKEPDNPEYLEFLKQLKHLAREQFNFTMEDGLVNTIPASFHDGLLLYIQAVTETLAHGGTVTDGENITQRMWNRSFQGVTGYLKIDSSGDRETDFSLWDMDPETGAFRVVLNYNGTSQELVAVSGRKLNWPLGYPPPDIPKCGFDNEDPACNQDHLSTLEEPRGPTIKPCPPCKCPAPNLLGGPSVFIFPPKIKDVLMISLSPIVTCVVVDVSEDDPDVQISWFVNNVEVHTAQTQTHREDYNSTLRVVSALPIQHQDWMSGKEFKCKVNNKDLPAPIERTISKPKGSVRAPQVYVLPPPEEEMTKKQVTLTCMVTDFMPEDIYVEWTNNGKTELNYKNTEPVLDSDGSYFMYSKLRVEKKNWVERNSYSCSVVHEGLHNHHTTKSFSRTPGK
Test: SPR, mAb captured, 25C
Units required after the number.

Would you please look over these solved cases?
mAb22035 (antibody, human IgG4, V domains shown) VH: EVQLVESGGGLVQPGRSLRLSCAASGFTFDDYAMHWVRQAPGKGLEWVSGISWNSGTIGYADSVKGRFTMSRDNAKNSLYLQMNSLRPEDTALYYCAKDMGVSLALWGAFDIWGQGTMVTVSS VL: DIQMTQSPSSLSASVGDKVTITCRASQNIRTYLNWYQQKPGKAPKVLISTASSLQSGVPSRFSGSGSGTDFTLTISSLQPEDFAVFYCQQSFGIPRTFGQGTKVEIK | 0.229 nM
mAb25497 (antibody, human IgG4, V domains shown) VH: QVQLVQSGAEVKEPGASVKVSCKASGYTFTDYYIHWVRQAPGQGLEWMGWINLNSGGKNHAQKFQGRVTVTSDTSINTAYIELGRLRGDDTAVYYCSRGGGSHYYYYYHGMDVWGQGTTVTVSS VL: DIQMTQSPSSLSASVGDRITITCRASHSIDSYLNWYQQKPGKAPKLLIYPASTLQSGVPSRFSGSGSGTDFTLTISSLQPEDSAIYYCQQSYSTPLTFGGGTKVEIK | 0.337 nM
mAb25491 (antibody, human IgG4, V domains shown) VH: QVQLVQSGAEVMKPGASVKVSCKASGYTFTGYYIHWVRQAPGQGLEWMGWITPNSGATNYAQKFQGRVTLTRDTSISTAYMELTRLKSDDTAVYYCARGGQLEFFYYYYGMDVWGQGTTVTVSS VL: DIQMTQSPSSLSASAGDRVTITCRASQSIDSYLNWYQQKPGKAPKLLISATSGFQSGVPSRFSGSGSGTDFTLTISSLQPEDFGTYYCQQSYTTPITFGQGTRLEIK | 1.4 nM

Consider the binder mAb25502 (antibody, human IgG4, V domains shown) VH: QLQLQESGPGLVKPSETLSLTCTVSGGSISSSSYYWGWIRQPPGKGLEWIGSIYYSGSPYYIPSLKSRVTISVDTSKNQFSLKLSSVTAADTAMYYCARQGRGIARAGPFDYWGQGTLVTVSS VL: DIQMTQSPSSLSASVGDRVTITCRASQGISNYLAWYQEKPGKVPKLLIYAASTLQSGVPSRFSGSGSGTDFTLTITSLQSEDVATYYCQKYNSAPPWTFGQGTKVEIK and give its recorded Kd.
1.6 nM
